Reference source: ChEMBL document CHEMBL1201862

Test system: SK-MEL-2
EXPERIMENTAL_DETAILS: NCI tumour cell line growth inhibition, 48 h
The source made the active and inactive calls. Rule as the data show it: active = GI50 up to about 1.1 µM and inactive = higher. Where a SMILES comes first, the peptide text is derived from it. The star is where a group is joined. Boc = CC(C)(C)OC(=O)*; OBn = c1ccc(CO*)cc1
RECORDED_ENDPOINT: GI50

COMPOUND: COc1ccc2c(c1)[nH]c1c3ccc(OC)cc3oc(=O)c21
ENDPOINT_RESULT: > 100 µM (inactive)
//
COMPOUND: C=CC1CN(C(=O)OCC)N(C(=O)OCC)C1CCc1ccccc1 (stereo not given)
ENDPOINT_RESULT: > 100 µM (inactive)
//
COMPOUND: COc1ccc(/C=C2\C(=O)N(C3OC(COC(C)=O)C(OC(C)=O)C(OC(C)=O)C3OC(C)=O)c3ccccc3N=C2N)cc1 (stereo not given)
ENDPOINT_RESULT: 23.1 µM (inactive)
//
COMPOUND: CC(O)CCCOC(c1ccccc1)(c1ccccc1)c1ccccc1 (stereo not given)
ENDPOINT_RESULT: 15.1 µM (inactive)
//
COMPOUND: COC(=O)c1ccc(/N=N/N(C)COc2ccc(C#N)cc2)cc1
ENDPOINT_RESULT: > 100 µM (inactive)
//
COMPOUND: O=C(CP(=O)(c1ccccc1)c1ccccc1)c1cccc(C(=O)CP(=O)(c2ccccc2)c2ccccc2)c1
ENDPOINT_RESULT: 49.9 µM (inactive)
//
COMPOUND: N#Cc1c(Cl)c2ccccc2n2c1nc1ccccc12
ENDPOINT_RESULT: 37.3 µM (inactive)
//
COMPOUND: CCCc1c2c3ccccc3nc-2nc2ccccn12
ENDPOINT_RESULT: > 100 µM (inactive)
//
COMPOUND: CCSC1=N/C(=C\c2ccc(N(C)C)cc2)C(Cl)=N1
ENDPOINT_RESULT: > 100 µM (inactive)
//
COMPOUND: C=CCCCCCCCCCOC1C=CC(OC(C)=O)C(COC(C)=O)O1 (stereo not given)
ENDPOINT_RESULT: 38.3 µM (inactive)
//
COMPOUND: CC(C)CC(NC(=O)OC(C)(C)C)C(=O)N1CCCC1C(=O)OCc1ccccc1 (stereo not drawn) (Boc-Leu-Pro-OBn; configuration not given here)
ENDPOINT_RESULT: > 100 µM (inactive)
//
COMPOUND: CCCC(=O)C(CC)/C(CCC(=O)N(Cc1ccccc1)Cc1ccccc1)=N/NC(=O)C[N+](C)(C)C (stereo not given)
ENDPOINT_RESULT: > 100 µM (inactive)
//
COMPOUND: CC(=O)OC(Cc1cc(C=C(C(F)(F)F)C(F)(F)F)cc(C)n1)(C(F)(F)F)C(F)(F)F
ENDPOINT_RESULT: 2.1 µM (inactive)
//
COMPOUND: O=C(C#Cc1ccccc1)C1=Cc2ccccc2OC1
ENDPOINT_RESULT: 3.94 µM (inactive)
//
COMPOUND: O=C(c1c(Cl)cc(Cl)cc1Cl)N(Cc1cccnc1)C(=S)N(Cc1cccnc1)C(=O)c1c(Cl)cc(Cl)cc1Cl
ENDPOINT_RESULT: 12.5 µM (inactive)
//
COMPOUND: CC(NC(=O)/C(=C/c1ccccc1)NC(=O)c1ccccc1)C(=O)O (stereo not given)
ENDPOINT_RESULT: > 100 µM (inactive)
//
COMPOUND: Cc1nc2c(-c3ccccc3)[nH]c(C)c2c(=O)o1
ENDPOINT_RESULT: 46.7 µM (inactive)
//
COMPOUND: CC(C)(C)C1=CC(=C2C(=O)C(=O)c3ccccc3C2=O)C=C(C(C)(C)C)C1=O
ENDPOINT_RESULT: > 100 µM (inactive)
//
COMPOUND: COc1ccc(C2[C@@H](Cl)C(=O)N2c2ccc(OC)cc2)cc1 (stereo not given in full)
ENDPOINT_RESULT: 62.5 µM (inactive)
//
COMPOUND: COc1cc2c3cc1Oc1c(OC)c(OC)cc4c1C(Cc1ccc(O)c(c1)-c1cc(ccc1OC)CC3N(C)CC2)N(C)CC4 (stereo not given)
ENDPOINT_RESULT: 19.5 µM (inactive)
//
COMPOUND: CCNC(=O)/C(=C/c1ccc(OC)cc1)c1cc(OC)c(OC)c(OC)c1
ENDPOINT_RESULT: 7.57 µM (inactive)
//
COMPOUND: Cc1cc(C)c2c(=O)n(CC(O)CN3CCN(CCOCCO)CC3)sc2n1 (stereo not given)
ENDPOINT_RESULT: 19.7 µM (inactive)
//
COMPOUND: OC(CCN1CCN(CCOC(c2ccccc2)c2ccccc2)CC1)c1ccc(Br)cc1 (stereo not given)
ENDPOINT_RESULT: 12.3 µM (inactive)
//
COMPOUND: COc1ccc2c(c1)Cc1c-2[nH]c2cc3c(cc2c1=O)OCO3
ENDPOINT_RESULT: 6.14 µM (inactive)
//
COMPOUND: COc1ccc2nc(-c3ccc(N)cc3)sc2c1
ENDPOINT_RESULT: > 100 µM (inactive)

###

System: SF-295
EXPERIMENTAL_DETAILS: NCI tumour cell line growth inhibition, 48 h
Calls of active or inactive are those of the source. Cut-off read from the data, not from the text of the source: active = GI50 up to about 1.1 µM and inactive = higher.
GI50 by entry:

CPD_SMILES: O/N=C(\c1ccccc1)N1CCCCC1
GI50: > 100 µM (inactive)
//
CPD_SMILES: CN(C)CCC[N+]1=Nc2cccc3cccc(c23)N1
GI50: > 100 µM (inactive)
//
CPD_SMILES: Cc1ccc(I)cc1N=C=S
GI50: 26.9 µM (inactive)
//
CPD_SMILES: COC1=CC(=O)C2=C(C1=O)[C@H]1CC[C@]3(C)C(=O)CC[C@H]3[C@@H]1CC2
GI50: 66.7 µM (inactive)

###

Test system: EKVX
EXPERIMENTAL_DETAILS: NCI tumour cell line growth inhibition, 48 h
Calls of active or inactive are those of the source. No stated cut-off is given here; in the data, active = GI50 up to about 1.1 µM and inactive = higher.
GI50 by entry:

COMPOUND: C#CCNC(=O)NCCCC(NC(C)=O)C(=O)NCc1ccccc1 (stereo not drawn)
TESTED_ON: EKVX
GI50: > 100 µM (inactive)
--
COMPOUND: COC1=CC(=O)C2=C(C1=O)[C@H]1CC[C@]3(C)C(=O)CC[C@H]3[C@@H]1CC2
TESTED_ON: EKVX
GI50: 16.7 µM (inactive)
--
COMPOUND: COC(=O)C1=C(O)C(C(=O)OC)[C@]2(O)[C@H](C(=O)OC)[C@H]1C[C@@H](c1ccc([N+](=O)[O-])cc1)[C@H]2C(=O)OC (stereo partly drawn)
TESTED_ON: EKVX
GI50: 21.5 µM (inactive)

###

Test system: SK-MEL-5
EXPERIMENTAL_DETAILS: NCI tumour cell line growth inhibition, 48 h
Activity calls are given as the source filed them. No stated cut-off is given here; in the data, active = GI50 up to about 1.1 µM and inactive = higher.

COMPOUND: CC(C)CC(=O)NC(C(=O)NC(C(=O)NC(CC(C)C)C(O)CC(=O)NC(C)C(=O)NC(CC(C)C)C(O)CC(=O)O)C(C)C)C(C)C (centres undefined)
GI50: > 100 µM (inactive)

COMPOUND: Cc1cc(OC(=O)Nc2cccc3ccccc23)c(C(C)C)cc1C(=S)Nc1ccccc1
GI50: 14.4 µM (inactive)

COMPOUND: Cc1ccc(NC(=O)CCc2cc(C(C)(C)C)nc(S)n2)cc1C
GI50: > 100 µM (inactive)

COMPOUND: C/C(=C1/CCCC2(N=NCC2c2ccccc2)C1=O)c1ccccc1 (centres undefined)
GI50: 12.7 µM (inactive)

COMPOUND: CCOC(=O)C(NC(=O)c1ccccc1)(Nc1ccc(S(=O)(=O)Nc2nc(C)cc(C)n2)cc1)C(F)(F)F (centres undefined)
GI50: > 100 µM (inactive)

COMPOUND: CCC(C)N1CN(c2ccccc2)C2(CCN(CCCC(=O)c3ccc(F)cc3)CC2)C1=O (centres undefined)
GI50: 1.19 µM (inactive)

COMPOUND: CCOC(=O)c1nc2cc(F)c(F)cc2nc1NCc1cc(OC)c(OC)c(OC)c1
GI50: 76.7 µM (inactive)

COMPOUND: CN1CCN(c2nc(N)c(Br)c(Cl)n2)CC1
GI50: > 100 µM (inactive)

COMPOUND: C=CC1CN(C(=O)OCC)N(C(=O)OCC)C1CCc1ccccc1 (centres undefined)
GI50: 64.1 µM (inactive)

###

Tested on: HL-60
EXPERIMENTAL_DETAILS: NCI tumour cell line growth inhibition, 48 h
Active and inactive are the calls of the source. No stated cut-off is given here; in the data, active = GI50 up to about 1.1 µM and inactive = higher.
GI50 by entry:

COMPOUND: CC(=O)C1=C(C)NC(=C(C#N)C#N)C(C#N)=C1
GI50: > 100 µM (inactive)

COMPOUND: Cn1c(=O)c2c(nc(NCCCCl)n2CC(=O)O)n(C)c1=O
GI50: > 100 µM (inactive)

COMPOUND: COc1ccc(N(C(=O)Nc2ccc(Cl)c(Cl)c2)C2c3cccn3C(=O)N2c2ccc(Cl)c(Cl)c2)cc1 (stereo not drawn)
GI50: 25.1 µM (inactive)

COMPOUND: O=c1[nH]c(-n2[nH]c3c(c2=O)CCCC3)nc(O)c1-c1ccccc1
GI50: > 100 µM (inactive)

COMPOUND: N=C(N)N/N=C/c1c(-c2ccc([N+](=O)[O-])cc2)nc2n1CCS2
GI50: 8.36 µM (inactive)

COMPOUND: CC1=NN(c2cccc(Cl)c2)C2(C1=Cc1ccc(O)cc1)C(Cl)C(=O)N2c1nc2ccccc2s1 (stereo not drawn)
GI50: 26.4 µM (inactive)

COMPOUND: O=C(/C(=C\C(=O)c1cccs1)c1ccsc1)c1ccc(Br)cc1
GI50: > 100 µM (inactive)

COMPOUND: COC(=O)C1=C(C(=O)OC)C23CC1C1C(C(=O)OC)=C(C(=O)OC)C12C1C=CC3C2C(=O)OC(=O)C21 (stereo not drawn)
GI50: 40.1 µM (inactive)
